B1: IQUB (parent)
chain: EADYEDDSKIAFLMQLQDIQYLTE

- Variants of: B1
- METHOD NOTES: protein stability index of a GFP-peptide fusion (GPS, HEK-293T) (PSI 1-6); higher = more stable;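 also: lentivirally expressed fusions sorted by FACS into six bins by GFP to DsRed ratio, PSI derived from sequencing read proportions per bin multiplied by bin number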
- PROTOCOL CONDITIONS: c terminus: a fixed tail appended
Below: a set of entries, each annotated with reported protein stability index.

>  <MUTATION KEY>
Q20I

>  <protein stability index>
2.64

$$$$
>  <MUTATION KEY>
Q20E

>  <protein stability index>
3.98

$$$$
>  <MUTATION KEY>
F12E

>  <protein stability index>
5.06

$$$$
>  <MUTATION KEY>
L22P

>  <protein stability index>
4.51

$$$$
>  <MUTATION KEY>
D18F

>  <protein stability index>
2.33

$$$$
>  <MUTATION KEY>
I10P

>  <protein stability index>
4.53

$$$$
>  <MUTATION KEY>
E1I

>  <protein stability index>
2.09

$$$$
>  <MUTATION KEY>
L22F

>  <protein stability index>
2.91

$$$$
>  <MUTATION KEY>
D3E

>  <protein stability index>
2.88

$$$$
>  <MUTATION KEY>
L22M

>  <protein stability index>
3.4

$$$$
>  <MUTATION KEY>
D3M

>  <protein stability index>
2.03

$$$$
>  <MUTATION KEY>
T23D

>  <protein stability index>
4.09

$$$$
>  <MUTATION KEY>
L16T

>  <protein stability index>
3.75

$$$$
>  <MUTATION KEY>
D3F

>  <protein stability index>
1.62

$$$$
>  <MUTATION KEY>
F12C

>  <protein stability index>
4.29

$$$$
>  <MUTATION KEY>
Y4W

>  <protein stability index>
3.42

$$$$
>  <MUTATION KEY>
Q15M

>  <protein stability index>
2.36

$$$$
>  <MUTATION KEY>
S8L

>  <protein stability index>
2.25

$$$$
>  <MUTATION KEY>
Q20W

>  <protein stability index>
2.35

$$$$
>  <MUTATION KEY>
E24G

>  <protein stability index>
2.89

$$$$
>  <MUTATION KEY>
E1C

>  <protein stability index>
2.61

$$$$
>  <MUTATION KEY>
L16G

>  <protein stability index>
4.76

$$$$
>  <MUTATION KEY>
D7Y

>  <protein stability index>
2.18

$$$$
>  <MUTATION KEY>
M14P

>  <protein stability index>
4.46

$$$$
>  <MUTATION KEY>
I10R

>  <protein stability index>
3.82

$$$$
>  <MUTATION KEY>
Y21N

>  <protein stability index>
3.87

$$$$
>  <MUTATION KEY>
K9G

>  <protein stability index>
2.81

$$$$
>  <MUTATION KEY>
A11I

>  <protein stability index>
1.99

$$$$
>  <MUTATION KEY>
D6Y

>  <protein stability index>
1.86

$$$$
>  <MUTATION KEY>
L13P

>  <protein stability index>
4.68

$$$$
>  <MUTATION KEY>
Q15G

>  <protein stability index>
3.76

$$$$
>  <MUTATION KEY>
D6M

>  <protein stability index>
1.75

$$$$
>  <MUTATION KEY>
I19D

>  <protein stability index>
4.94

$$$$
>  <MUTATION KEY>
D3L

>  <protein stability index>
2.02

$$$$
>  <MUTATION KEY>
L16C

>  <protein stability index>
4.06

$$$$
>  <MUTATION KEY>
Q17N

>  <protein stability index>
3.5

$$$$
>  <MUTATION KEY>
Q17D

>  <protein stability index>
3.73

$$$$
>  <MUTATION KEY>
S8C

>  <protein stability index>
2.29

$$$$
>  <MUTATION KEY>
D18I

>  <protein stability index>
1.39

$$$$
>  <MUTATION KEY>
E24V

>  <protein stability index>
1.81

$$$$
>  <MUTATION KEY>
K9T

>  <protein stability index>
2.64

$$$$
>  <MUTATION KEY>
M14S

>  <protein stability index>
3.95

$$$$
>  <MUTATION KEY>
L16D

>  <protein stability index>
4.58

$$$$
>  <MUTATION KEY>
Q20S

>  <protein stability index>
3.61

$$$$
>  <MUTATION KEY>
E5P

>  <protein stability index>
2.79

$$$$
>  <MUTATION KEY>
D18K

>  <protein stability index>
2.65

$$$$
>  <MUTATION KEY>
A2C

>  <protein stability index>
2.75

$$$$
>  <MUTATION KEY>
I10S

>  <protein stability index>
3.91

$$$$
>  <MUTATION KEY>
D3I

>  <protein stability index>
1.97

$$$$
>  <MUTATION KEY>
L13K

>  <protein stability index>
4.11

$$$$
>  <MUTATION KEY>
A2F

>  <protein stability index>
2.58

$$$$
>  <MUTATION KEY>
D7N

>  <protein stability index>
2.19

$$$$
>  <MUTATION KEY>
E24F

>  <protein stability index>
1.92

$$$$
>  <MUTATION KEY>
D6P

>  <protein stability index>
2.34

$$$$
>  <MUTATION KEY>
M14R

>  <protein stability index>
3.75

$$$$
>  <MUTATION KEY>
A2G

>  <protein stability index>
2.71

$$$$
>  <MUTATION KEY>
Q20P

>  <protein stability index>
3.45

$$$$
>  <MUTATION KEY>
Y4L

>  <protein stability index>
3.51

$$$$
>  <MUTATION KEY>
A11D

>  <protein stability index>
4.07

$$$$
>  <MUTATION KEY>
F12M

>  <protein stability index>
4.05

$$$$
>  <MUTATION KEY>
T23I

>  <protein stability index>
1.54

$$$$
>  <MUTATION KEY>
K9F

>  <protein stability index>
2.32

$$$$
>  <MUTATION KEY>
E5A

>  <protein stability index>
2.22

$$$$
>  <MUTATION KEY>
S8G

>  <protein stability index>
3.46

$$$$
>  <MUTATION KEY>
E5K

>  <protein stability index>
2.6

$$$$
>  <MUTATION KEY>
K9Q

>  <protein stability index>
3.21

$$$$
>  <MUTATION KEY>
D18C

>  <protein stability index>
1.84

$$$$
>  <MUTATION KEY>
E5W

>  <protein stability index>
2.29

$$$$
>  <MUTATION KEY>
Y21G

>  <protein stability index>
4.07

$$$$
>  <MUTATION KEY>
A11Q

>  <protein stability index>
3.49

$$$$
>  <MUTATION KEY>
A2R

>  <protein stability index>
2.44

$$$$
>  <MUTATION KEY>
Y21S

>  <protein stability index>
3.52

$$$$
>  <MUTATION KEY>
D6K

>  <protein stability index>
2.63

$$$$
>  <MUTATION KEY>
M14K

>  <protein stability index>
3.77

$$$$
